Test system: 299254-011-R-J1-PDC complex spheroid viability;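 further: spheroids exposed to drugs for one week before measurement; percent viability relative to DMSO vehicle control taken as 100%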
Experiment: Anticancer human tumor 299254-011-R-J1-PDC patient-derived melanoma cell line growth inhibition [POLQ]
Conditions: second compound 0.316 µM; first compound 3.16 µM; hits give low values
measurement-type: viability, T/C (%)

# compound, measurement-type, quantity-unit, observed
rows = [
    ("CCc1cc2c(N3CCc4c(cc(Cn5ccnc5)cc4-c4cn(C)nc4C(F)(F)F)C3=O)cc(C)nc2c(OC)n1 + COC1C(OC(N)=O)C(O)C(Oc2ccc3c(O)c(NC(=O)c4ccc(O)c(CC=C(C)C)c4)c(=O)oc3c2C)OC1(C)C", "viability, T/C", "%", 88.4),
    ("CCc1cc2c(N3CCc4c(cc(Cn5ccnc5)cc4-c4cn(C)nc4C(F)(F)F)C3=O)cc(C)nc2c(OC)n1 + Nc1ccc(C#CCN(C(=O)Cc2ncc(C(F)(F)F)cc2C(F)(F)F)c2ccc(F)cc2)nn1", "viability, T/C", "%", 95),
    ("CCc1cc2c(N3CCc4c(cc(Cn5ccnc5)cc4-c4cn(C)nc4C(F)(F)F)C3=O)ccnc2c(OC)n1 + Nc1ccc(C#CCN(C(=O)Cc2ncc(C(F)(F)F)cc2C(F)(F)F)c2ccc(F)cc2)nn1", "viability, T/C", "%", 97.2),
    ("C=CC(=O)N1CCN(c2nc(=O)n(-c3c(C)ccnc3C(C)C)c3nc(-c4c(O)cccc4F)c(F)cc23)C(C)C1 (stereo unspecified) + Cc1cccc(N(C)C(=O)C2C(O)CCN2c2nc(C)cc(C(F)(F)F)c2C#N)c1", "viability, T/C", "%", 74.3),
    ("CC1COCCN1c1cc(-c2ccnn2C)c2ccnc(-c3ccn[nH]3)c2n1 (stereo unspecified) + COC1C(OC(N)=O)C(O)C(Oc2ccc3c(O)c(NC(=O)c4ccc(O)c(CC=C(C)C)c4)c(=O)oc3c2C)OC1(C)C", "viability, T/C", "%", 31.3),
    ("C#Cc1c(F)ccc2cc(O)cc(-c3ncc4c(N5CC6CCC(C5)N6)nc(OCC56CCCN5CC(F)C6)nc4c3F)c12 (stereo unspecified) + Nc1ccc(C#CCN(C(=O)Cc2ncc(C(F)(F)F)cc2C(F)(F)F)c2ccc(F)cc2)nn1", "viability, T/C", "%", 98),
]
